- Test: Antineoplastic activity against transplanted methyl cholanthrene A tumor, evaluation by size of tumor (Examples 1 to 6)
- Format: in vivo, female BALB/C mice
- Measurement Context: mouse, in vivo, ip

Compound	MTD
Cc1ncc(CNC(=O)N(CCCl)N=O)c(N)n1 [reference compound]	5 mg/kg

* * *

- System: methyl cholanthrene A
- Test: Methyl cholanthrene A tumor, evaluation by elongation of period of survival (Examples 17 to 20)
- Type: in vivo, female BALB/C mice
- Measurement Context: 100 mg/kg ×9
Quantity Measured: Number of toxically killed mice/total number of mice

Compound	Assayed System	Result
O.O.O.O.[Na+].[Na+].[Na+].[Na+].[Na+].[Na+].[O]=[Mo](=[O])([O-])[O][Mo](=[O])(=[O])[O][Mo](=[O])([O-])([O-])[O][Mo](=[O])(=[O])[O][Mo](=[O])([O-])([O-])[O][Mo](=[O])(=[O])[O][Mo](=[O])(=[O])[O-] [Compound F, Na6 [Mo7O24] • 4H2O]	methyl cholanthrene A	0/8

* * *

- Test: Methyl cholanthrene A tumor, evaluation by weight of tumor (Examples 13 to 16)
- Type: in vivo, female BALB/C mice
- Measurement Context: mouse, in vivo, ip; read-out: largest allowable dose

Molecule	Measurement Units	MTD
Cc1ncc(CNC(=O)N(CCCl)N=O)c(N)n1 [reference compound]	mg/kg	5

* * *

- Tested on: methyl cholanthrene A
- Test: Methyl cholanthrene A tumor, evaluation by elongation of period of survival (Examples 17 to 20)
- Assay type: in vivo, female BALB/C mice
- Measurement Context: 100 mg/kg ×9

Compound	Assayed System	Ratio of prolonging life (%)
O.O.O.O.[Cs+].[Cs+].[Cs+].[Cs+].[Cs+].[Cs+].[O]=[Mo](=[O])([O-])[O][Mo](=[O])(=[O])[O][Mo](=[O])([O-])([O-])[O][Mo](=[O])(=[O])[O][Mo](=[O])([O-])([O-])[O][Mo](=[O])(=[O])[O][Mo](=[O])(=[O])[O-] [Compound H, Cs6 [Mo7O24] • 4H2O]	methyl cholanthrene A	46.2
O.O.O.O.[Na+].[Na+].[Na+].[Na+].[Na+].[Na+].[O]=[Mo](=[O])([O-])[O][Mo](=[O])(=[O])[O][Mo](=[O])([O-])([O-])[O][Mo](=[O])(=[O])[O][Mo](=[O])([O-])([O-])[O][Mo](=[O])(=[O])[O][Mo](=[O])(=[O])[O-] [Compound F, Na6 [Mo7O24] • 4H2O]	methyl cholanthrene A	55.6
O.O.O.O.[Li+].[Li+].[Li+].[Li+].[Li+].[Li+].[O]=[Mo](=[O])([O-])[O][Mo](=[O])(=[O])[O][Mo](=[O])([O-])([O-])[O][Mo](=[O])(=[O])[O][Mo](=[O])([O-])([O-])[O][Mo](=[O])(=[O])[O][Mo](=[O])(=[O])[O-] [Compound G, Li6 [Mo7O24] • 4H2O]	methyl cholanthrene A	40.4

* * *

- Tested on: methyl cholanthrene A
- Test: Methyl cholanthrene A tumor, evaluation by elongation of period of survival (Examples 17 to 20)
- Format: in vivo, female BALB/C mice
- Measurement Context: 100 mg/kg ×9
Quantity Measured: Ratio of prolonging life (%)

Compound	Quantity Measured	Quantitative Result
O.O.O.O.[K+].[K+].[K+].[K+].[K+].[K+].[O]=[Mo](=[O])([O-])[O][Mo](=[O])(=[O])[O][Mo](=[O])([O-])([O-])[O][Mo](=[O])(=[O])[O][Mo](=[O])([O-])([O-])[O][Mo](=[O])(=[O])[O][Mo](=[O])(=[O])[O-] [Compound E, K6 [Mo7O24] • 4H2O]	Ratio of prolonging life	57.8

* * *

- Test system: methyl cholanthrene A
- Test: Methyl cholanthrene A tumor, evaluation by elongation of period of survival (Examples 17 to 20)
- Assay type: in vivo, female BALB/C mice
- Measurement Context: 100 mg/kg ×9
Quantity Measured: Number of toxically killed mice/total number of mice

Compound	Result
O.O.O.O.[Li+].[Li+].[Li+].[Li+].[Li+].[Li+].[O]=[Mo](=[O])([O-])[O][Mo](=[O])(=[O])[O][Mo](=[O])([O-])([O-])[O][Mo](=[O])(=[O])[O][Mo](=[O])([O-])([O-])[O][Mo](=[O])(=[O])[O][Mo](=[O])(=[O])[O-] [Compound G, Li6 [Mo7O24] • 4H2O]	0/8
O.O.O.O.[K+].[K+].[K+].[K+].[K+].[K+].[O]=[Mo](=[O])([O-])[O][Mo](=[O])(=[O])[O][Mo](=[O])([O-])([O-])[O][Mo](=[O])(=[O])[O][Mo](=[O])([O-])([O-])[O][Mo](=[O])(=[O])[O][Mo](=[O])(=[O])[O-] [Compound E, K6 [Mo7O24] • 4H2O]	0/8
O.O.O.O.[Cs+].[Cs+].[Cs+].[Cs+].[Cs+].[Cs+].[O]=[Mo](=[O])([O-])[O][Mo](=[O])(=[O])[O][Mo](=[O])([O-])([O-])[O][Mo](=[O])(=[O])[O][Mo](=[O])([O-])([O-])[O][Mo](=[O])(=[O])[O][Mo](=[O])(=[O])[O-] [Compound H, Cs6 [Mo7O24] • 4H2O]	0/8

* * *

- Test: MM-46 breast cancer, evaluation by size of tumor (Examples 21 to 24)
- Assay type: in vivo, female C3H/He mice
- Measurement Context: mouse, in vivo, ip; read-out: largest allowable dose
Quantity Measured: MTD (mg/kg)

Compound	Quantitative Result
Cc1ncc(CNC(=O)N(CCCl)N=O)c(N)n1 [reference compound]	5

// data source = patent EP0412158A1
